# assayed_target: farnesyl protein transferase (Homo sapiens, UniProt P49354+P49356)
# experiment_summary: In vitro assay for inhibition of farnesyl protein transferase
# Assay type: biochemical
# run_parameters: at 10^−7 M
Assignment: determine reported inhibition at 0.1 µM for the given compounds.
Give the value in % but do not write % after it.

I would be grateful if you could share the reported inhibition at 0.1 µM for CN1c2ccc(C(O)(c3ccc(I)cc3)c3cncn3C)cc2C(c2cccc(Cl)c2)n2nnnc21 (mixture of isomers) .
78

Same read-out for COc1ccc(C(O)(c2ccc3c(c2)C(c2cccc(Cl)c2)n2nnnc2N3CC2CC2)c2cncn2C)cc1 (stereo not drawn) ?
82

Do the same for COc1ccc(C(O)(c2ccc3c(c2)C(c2cccc(Cl)c2)n2nnnc2N3)c2cncn2C)cc1 (stereo not drawn) please
80
